# System: U2OS
# experiment.description: Multiplex assay against U2OS
# Assay type: toxicity, cell-based
# assay.context: human, 12 h, 10 µM, compound concentration 10 uM, replicate 1
Entries and their Population Healthy Nuclei (%) values follow.
Reply with just the number (in %).

// known answers, use as guide
Cl.NCCc1ccc(O)c(O)c1 [DOPAMINE HYDROCHLORIDE]
65
Cl.N=C(N)NC(=O)Cc1c(Cl)cccc1Cl [GUANFACINE HYDROCHLORIDE]
61
Cc1cccc(NC(=O)CN2CCC(c3ccccn3)CC2)c1.Cl.Cl
55
CN[C@@H](C)C(=O)N[C@H](C(=O)N1CCC[C@H]1C(=O)Nc1snnc1-c1ccccc1)C1CCCCC1 [GDC-0152]
44
CCCCC1=NC2(CCCC2)C(=O)N1Cc1ccc(-c2ccccc2-c2nnn[nH]2)cc1 [IRBESARTAN]
68
CC(/C=C1\SC(=S)N(CCCC(=O)Nc2ccc(C(=O)O)c(O)c2)C1=O)=C\c1ccccc1
61
NCCc1cn(S(=O)(=O)c2c(Cl)nc3sccn23)c2ccccc12.O=C(O)C(=O)O
42
O=C(CCCc1ccccc1)Nc1nc2ccccc2c(=O)s1
58
CCCOc1ccc2[nH]cc(C3=CCNCC3)c2n1.Cl
66
N#Cc1cc(F)cc(-c2nc(-c3ccc(F)cn3)no2)c1
59

Task: So what does the record say about Population Healthy Nuclei (%) for "O=C1[C@H](Cc2ccc(O)cc2)N2C(=O)CCN(C(=O)NCc3ccccc3)[C@H]2CN1Cc1cccc2ccccc12" ?
Result: 50

Task: Give its Population Healthy Nuclei (%) value. Item: CC(C)c1noc(N2CCC(COc3ccc(-c4ccc(S(C)(=O)=O)cc4)nc3)CC2)n1 [GSK-1292263]
Result: 60

Task: Fill in the blank: the reported Population Healthy Nuclei (%) of "N#Cc1c(Oc2cccc(OS(=O)(=O)CCCC(F)(F)F)c2)cccc1C(F)(F)F" is ____.
Result: 63
